Values were extracted from patent US12215140B2.

Target: hemoglobin (Homo sapiens, UniProt P68871+P69905)
Sequence (P69905 2-142): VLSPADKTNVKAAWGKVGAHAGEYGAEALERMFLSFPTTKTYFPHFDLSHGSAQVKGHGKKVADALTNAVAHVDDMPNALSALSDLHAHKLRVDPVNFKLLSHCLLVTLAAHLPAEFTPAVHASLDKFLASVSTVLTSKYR
Sequence (P68871 2-147): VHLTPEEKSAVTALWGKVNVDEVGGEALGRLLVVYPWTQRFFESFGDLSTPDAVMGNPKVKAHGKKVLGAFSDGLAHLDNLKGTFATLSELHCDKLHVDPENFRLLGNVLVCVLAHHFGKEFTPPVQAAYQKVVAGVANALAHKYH
Test: Stability of hemoglobin in samples preserved at 37° C. in preservation solution containing no haptoglobin, Hb measured by latex agglutination method (Examples 8, 9 and Table 10)
Details: Feces 1; 62 h at 37° C.; no phenylboronic acid, sugar 100 mmol/L
Protocol: Preservation solutions were prepared with the addition of 40 mmol/L HEPES (pH 6.8), 0.1% BSA, 0.1% NaN3, and 0 to 2.5 mmol/L phenylboronic acid. […] The hemoglobin (Hb) concentrations (μg/L) in the preserved samples were measured by the latex agglutination method using the same measurement reagent and measurement device as in Example 1. […]
Here the recorded Hb concentration is given for each entry.
Give your result in µg/L as a bare value.

Example cases with answers are listed next.
>>> print(df.to_string())
                               smiles_entry  observed_result
0   OC[C@@H](O)[C@@H](O)[C@H](O)[C@@H](O)CO                1
1  OC[C@H]1O[C@H](O[C@H]2O[C@H](CO)[C@@H](O)[C@H](O)[C@H]2O)[C@H](O)[C@@H](O)[C@@H]1O                8
2        O=C(CO)[C@@H](O)[C@H](O)[C@H](O)CO                0
3  OC[C@H]1O[C@@](CO)(O[C@H]2O[C@H](CO)[C@@H](O)[C@H](O)[C@H]2O)[C@@H](O)[C@@H]1O               10

Below: the item to evaluate.
OC[C@@H](O)[C@@H](O)[C@H](O)[C@H](O)CO yielded Hb concentration of 1
